Assay: P-glycoprotein substrates identified in KB-8-5-11 adenocarcinoma cell line, qHTS therapeutic library screen (AID 1346987); note: nearly all actives have a fitted effect of over 65% in size
Conditions: KB-8-5-11 (P-gp overexpressing) viability, CellTiter-Glo, 72 h; series mostly up to 44.5 µM
Description: The ATP-binding cassette transporters P-glycoprotein (P-gp) is known to limit brain penetration of many chemotherapy drugs. […] All cell lines were plated into 1536-well plates at 500 cells/well in 5 uL media. […] CellTiter-Glo reagent (Promega) was dispensed into the wells, incubated for 5 min and luminescence was read on a ViewLux instrument (Perkin-Elmer). […]
Records with an inconclusive call do not appear. The source made the active and inactive calls. Calls come from the whole dose curve; as a rule, active = well fitted inhibition curve with a large enough effect; inconclusive = small, poorly fitted or top-dose-only effect; inactive = flat fitted curve, though single readings scatter.
Outcomes: active, inactive

compound	assignedCategory
CC[C@H]1OC(=O)[C@H](C)[C@@H](O[C@H]2C[C@@](C)(OC)[C@@H](O)[C@H](C)O2)[C@H](C)[C@@H](O[C@@H]2O[C@H](C)C[C@H](N(C)C)[C@@H]2O)[C@](C)(OC)C[C@@H](C)C(=O)[C@H](C)[C@@H](O)[C@]1(C)O	inactive
C[C@]12CC[C@@H]3c4ccc(O)cc4CC[C@H]3[C@H]1CC[C@H]2O	active
CCOC(=O)[C@@H](N)Cc1ccc(-c2cc(O[C@H](c3ccc(Cl)cc3-n3ccc(C)n3)C(F)(F)F)nc(N)n2)cc1	inactive
CCCNS(=O)(=O)Nc1ncnc(OCCOc2ncc(Br)cn2)c1-c1ccc(Br)cc1	inactive
COc1ccc2cc([S+]([O-])Cc3ncc(C)c(OC)c3C)nc2c1	inactive
CC(=O)N[C@@H]1[C@H](O[C@@H]2c3ccc(c(Cl)c3)Oc3cc4cc(c3O[C@H]3O[C@H](CO)[C@@H](O)[C@H](O)[C@H]3NC(=O)CCCCCCCC(C)C)Oc3ccc(cc3Cl)C[C@H]3NC(=O)[C@H](N)c5ccc(O)c(c5)Oc5cc(O)cc(c5)[C@H](NC3=O)C(=O)N[C@H]4C(=O)N[C@H]3C(=O)N[C@@H]2C(=O)N[C@@H](C(=O)O)c2cc(O)cc(O[C@H]4O[C@H](CO)[C@@H](O)[C@H](O)[C@H]4O)c2-c2cc3ccc2O)O[C@H](CO)[C@@H](O)[C@@H]1O	inactive
O=C(O)C(=O)Nc1cccc(C2=NN=N[N]2)c1	inactive
C=Cc1c(C)c2cc3nc(cc4[nH]c(cc5nc(cc1[nH]2)C(C)=C5CCC(=O)O)c(CCC(=O)OC)c4C)[C@@]1(C)C3=CC=C(C(=O)OC)[C@H]1C(=O)OC	inactive
NC(=O)Nc1sc(-c2ccc(F)cc2)cc1C(N)=O	active
C=C1CCC2[C@](C)(CO)C(O)CC[C@]2(C)C1CC=C1C(=O)OCC1O (stereo not given in full)	inactive
C[C@@]12C(=O)OC(=O)[C@@]1(C)C1CCC2O1	active
C[C@H]1C[C@H]2[C@@H]3CCC4=CC(=O)C=C[C@]4(C)[C@@H]3C(=O)C[C@]2(C)[C@@]1(O)C(=O)CO	inactive
CCc1c(O)cc(O)c(C(=O)c2ccc(OCCN3CCOCC3)c(OC)c2)c1CC(=O)N(CCOC)CCOC	inactive
COc1cccc2c1C(=O)c1c(O)c3c(c(O)c1C2=O)C[C@@](O)(C(=O)CO)C[C@@H]3O[C@H]1C[C@H](N)[C@H](OC2CCCCO2)[C@H](C)O1 (stereo not given in full)	active
C[C@H](NC(=O)C(C#N)=Cc1cccc(Br)n1)c1ccccc1	active
O=C(O)C[C@H](O)C[C@H](O)C=Cc1c(C2CC2)nc2ccccc2c1-c1ccc(F)cc1	active
FC(F)c1nc2ccccc2n1-c1nc(N2CCOCC2)nc(N2CCOCC2)n1	active
NC(=O)c1cccc(-c2cccc(OC(=O)NC3CCCCC3)c2)c1	inactive
CN(C)CCN1C(=O)c2cccc3cc(N)cc(c23)C1=O	active
COc1cc(OC)c(NC(=O)Nc2cc(C)on2)cc1Cl	inactive
CCC[C@H]1C[C@H](C(=O)N[C@@H]([C@@H]2O[C@@H](SC)[C@@H](O)[C@@H](O)[C@@H]2O)[C@H](C)Cl)N(C)C1	inactive
COc1cc(N2CCC(C(N)=O)CC2)ccc1Nc1nc(N)c(Cl)c(Nc2ccccc2S(=O)(=O)C(C)C)n1	inactive
O=[N+]([O-])c1cn2c(n1)OC[C@@H](OCc1ccc(OC(F)(F)F)cc1)C2	inactive
COc1cc(C)c(Sc2cnc(NC(=O)c3ccc(CNC(C)C(C)(C)C)cc3)s2)cc1C(=O)N1CCN(C(C)=O)CC1 (stereo not given)	inactive
Cc1ccc(-n2[nH]c(C)c(N=Nc3cccc(-c4cccc(C(=O)O)c4)c3O)c2=O)cc1C	inactive
Cn1cc(-c2cnn3c(N)c(Br)c([C@H]4CCCNC4)nc23)cn1	inactive
CCOC(=O)C1=C(C)NC(=S)NC1c1cccc(O)c1 (stereo not given)	active
CN[C@H](CC(C)C)C(=O)N[C@H]1C(=O)N[C@@H](CC(N)=O)C(=O)N[C@@H]2C(=O)N[C@H]3C(=O)N[C@H](C(=O)N[C@H](C(=O)O)c4cc(O)cc(O)c4-c4cc3ccc4O)[C@H](O)c3ccc(c(Cl)c3)Oc3cc2cc(c3O[C@@H]2O[C@H](CO)[C@@H](O)[C@H](O)[C@@H]2O[C@H]2C[C@](C)(N)[C@H](O)[C@H](C)O2)Oc2ccc(cc2Cl)[C@H]1O	inactive
Cn1cnc(=N)c2[nH]cnc21	active
Cn1cc(CNCC2CCN(c3ncc(C(=O)NO)cn3)CC2)c2ccccc21	active

###

Assay: Quantitative High-Throughput drug screen in 47 multiple myeloma cell lines against the NCATS MIPE library collection: INA6_PLB cell viability assay (AID 1918965; note: nearly all actives have a fitted effect of over 55% in size)
Conditions: INA6 myeloma viability, CellTiter-Glo ATP luminescence, 48 h; series mostly up to 45.8 µM
Inconclusive results are not listed. Calls of active or inactive are those of the source. Calls come from the whole dose curve; as a rule, active = well fitted cell-killing curve with a large enough effect; inconclusive = small, poorly fitted or top-dose-only effect, or effect the other way; inactive = no such curve, though single readings can be large or run the other way. Residues, ends and D or L forms follow the SMILES beside them. *: point of attachment. Cbz = O=C(OCc1ccccc1)*
Outcomes: active, inactive

>>> df
                                   molecule  assignedcategory
0  CCNC(=O)c1cc2c(-c3cc(OCCN4CCCC4)c(Cl)cc3Cl)nc(N)nc2s1            active
1  CC(C)C[C@@H](C=O)NC(=O)[C@H](CC(C)C)NC(=O)[C@H](CC(C)C)NC(=O)OCc1ccccc1 (Cbz-Leu-Leu-Leu-aldehyde)            active
2  O=C1NC(=O)C(=Cc2ccc3nccc(-c4ccncc4)c3c2)S1            active
3               c1coc(CNc2ncnc3nc[nH]c23)c1          inactive
4  CC(=O)SCC(Cc1ccccc1)C(=O)NCC(=O)OCc1ccccc1 (centres undefined)            active
5  CCc1cnn2c(NCc3ccc[n+]([O-])c3)cc(N3CCCC[C@@H]3CCO)nc12            active
6  C[C@H](CCC(=O)O)[C@H]1CCC2C3C[C@H](O)[C@@H]4C[C@H](O)CC[C@]4(C)C3CC[C@@]21C (some centres undefined)          inactive
7  C#C[C@]1(O)CC[C@@H]2[C@@H]3CCC4=CC(=O)CC[C@@H]4[C@H]3CC[C@@]21CC          inactive
8  Cc1cncc2cccc(S(=O)(=O)N3CCCN(C(=O)CN)C[C@@H]3C)c12            active

###

Test: Quantitative High-Throughput drug screen in 47 multiple myeloma cell lines against the NCATS MIPE library collection: PE2_PLB cell viability assay (AID 1919869); note: nearly all actives have a fitted effect of over 35% in size
Conditions: PE2_PLB myeloma cells viability, ATP luminescence, 48 h; series mostly up to 45.8 µM
Results filed as inconclusive are left out. Activity calls are given as the source filed them. Calls come from the whole dose curve; as a rule, active = well fitted cell-killing curve with a large enough effect; inconclusive = small, poorly fitted or top-dose-only effect, or effect the other way; inactive = no such curve, though single readings can be large or run the other way. Positions of bridges follow the written chain, without caps; N, C: chain ends. Non-standard residues stand in square brackets, D forms with d. Residues, ends and D or L forms follow the SMILES beside them. ξ: configuration not given here. *: point of attachment. Octanoyl(6-Me) = CCC(C)CCCCC(=O)*; ξThr(3R) = C[C@@H](O)C(N)C(=O)O; dDab = NCC[C@@H](N)C(=O)O; Dab = NCC[C@H](N)C(=O)O
Outcomes: active, inactive

compound	assignedCategory
CCc1ccc(C(=O)Nc2cc(CN3CCN(C)CC3)cc(C(F)(F)F)c2)cc1C#Cc1cnc2ccnn2c1	active
NC(=NCCCCCCN=C(N)N=C(N)Nc1ccc(Cl)cc1)N=C(N)Nc1ccc(Cl)cc1	active
CC(=O)[C@]1(O)Cc2c(O)c3c(c(O)c2[C@@H](O[C@H]2C[C@H](N)[C@@H](O)[C@H](C)O2)C1)C(=O)c1ccccc1C3=O	active
CC(O)(C#Cc1ccc2c(c1)N(c1nc(N)ncc1Cl)CC2)c1nccs1 (centres undefined)	active
COc1ccc2c(c1OC)C(=O)OC2[C@H]1c2c(cc3c(c2OC)OCO3)CCN1C (some centres undefined)	active
CCOc1cc2ncc(C#N)c(Nc3ccc(OCc4ccccn4)c(Cl)c3)c2cc1NC(=O)C=CCN(C)C	active
Cc1nc(NC(=O)N2CCC[C@@H]2C(N)=O)sc1-c1ccnc(C(C)(C)C(F)(F)F)c1	active
CCc1nc(-c2cccc(C)c2)c(-c2ccnc(NC(=O)c3ccccc3)c2)s1	active
CON=C(C(=O)N[C@@H]1C(=O)N2C(C(=O)O)=C(CSC(=O)c3ccco3)CS[C@H]12)c1csc(N)n1	inactive
N#CC(=C(N)Sc1ccc(N)cc1)c1ccccc1C(F)(F)F	active
COc1cc([C@@H]2c3cc4c(cc3[C@H](O)[C@H]3COC(=O)[C@@H]23)OCO4)cc(OC)c1OC	active
CCC(C)CCCCC(=O)N[C@@H](CCN)C(=O)NC(C(=O)N[C@H](CCN)C(=O)N[C@@H]1CCNC(=O)C([C@@H](C)O)NC(=O)[C@@H](CCN)NC(=O)[C@@H](CCN)NC(=O)[C@@H](CC(C)C)NC(=O)[C@H](Cc2ccccc2)NC(=O)[C@H](CCN)NC1=O)[C@@H](C)O (stereo partly drawn) ({Octanoyl(6-Me)}-[Dab][ξThr(3R)][dDab][dDab][Dab]F[dL][dDab][dDab][ξThr(3R)]; lactam 4-C)	inactive
CC(C)c1cnn2c(NCc3ccccc3)cc(NCCCCCCN)nc12	active
O=C(Nc1cccc(Nc2ncc(Br)c(NCCc3cnc[nH]3)n2)c1)N1CCCC1	active
CCS(=O)(=O)Nc1ccc2[nH]c(O)c(C(=Nc3ccc(CN4CCCCC4)cc3)c3ccccc3)c2c1	active
O=C(NCc1ccccc1)[C@H](Cc1ccccc1)NC(=O)[C@@H]1O[C@@H]1C(=O)NCCc1ccc(O)cc1	active
C=C(C)[C@@H]1CC[C@]2(C(=O)O)CC[C@]3(C)[C@H](CC[C@@H]4[C@@]5(C)CC[C@H](O)C(C)(C)[C@@H]5CC[C@]43C)[C@@H]12	inactive
CN(C)c1ccc(C(=O)NCCCCCCC(=O)NO)cc1	active
COc1cc2c(cc1O)CCC1C2CC[C@@]2(C)C1CC[C@@H]2O (some centres undefined)	active
Cn1cc(C=CC(=O)c2cccc(F)c2)cc1C=CC(=O)NO	active
NC(=O)Nc1cc(-c2ccc(CN3CCOCC3)cc2)sc1C(N)=O	active
O=C(Nc1cc2cc[nH]c2cn1)c1ccccc1	active
CCOC(=O)[C@@H](N)Cc1ccc(-c2cc(O[C@H](c3ccc(Cl)cc3-n3ccc(C)n3)C(F)(F)F)nc(N)n2)cc1	active
O=C(O)C[C@H](O)C[C@H](O)C=Cc1c(C2CC2)nc2ccccc2c1-c1ccc(F)cc1	active
Cn1cnc2c(F)c(Nc3ccc(Br)cc3F)c(C(=O)NOCCO)cc21	active
O=C(C[C@@H]1CC=CCCC(=O)O[C@H](c2ccccc2)CNC1=O)NCc1ccc(Cl)cc1	active
Cc1cc(Nc2ncc3c(n2)N(C)C(=O)N(c2cc(NC(=O)c4cccc(C(F)(F)F)c4)ccc2C)C3)n(C)n1	active
CC(=O)ON=C1C(c2c(O)[nH]c3cc(Br)ccc23)=Nc2ccccc21	active
COC(=O)[C@@H]1[C@H]2C[C@@H]3c4[nH]c5ccccc5c4CCN3C[C@@H]2CC[C@@H]1O	inactive
Cc1cnc(Nc2ccc(N3CCN(C)CC3)cc2)nc1Nc1cccc(S(=O)(=O)NC(C)(C)C)c1	active
OC[C@@H](O)[C@@H](O)[C@H](O)[C@@H](O)CO	inactive
CC(Cc1ccc(O)c(O)c1)(NN)C(=O)O (centres undefined)	inactive
O=C(C=CC#Cc1cccc(NS(=O)(=O)c2ccccc2)c1)NO	active
C[C@H](CCC(=O)O)[C@H]1CCC2C3C[C@H](O)[C@@H]4C[C@H](O)CC[C@]4(C)C3CC[C@@]21C (some centres undefined)	inactive
